Measured EC50, listed per entry.
target: rat mGlu3 receptor (Rattus norvegicus (Rat)); experiment: mGlu3 in vitro GIRK thallium flux assay; format: cell-based; conditions: NAM; 2.5 min compound incubation; EC80 glutamate; HEK-293 GIRK cells

{"molecule": "O=C(O)c1cc(-c2cccc(-c3nc(/C=C/c4ccccc4)cc(C(F)(F)F)n3)c2)ccc1F [Example 95]", "EC50": "> 10 µM"}

Reported EC50 for O=C(O)c1ccc(-c2cccc(-c3csc(-c4ccccc4)n3)c2)cc1 [Example 22] was > 30 µM

Memo: NS(=O)(=O)c1cccc(-c2cccc(-c3csc(-c4ccccc4)n3)c2)c1 [Example 2] , reported EC50: > 30 µM

Form field EC50, entry O=C1CC(c2ccnc(Cl)c2)=Nc2ccc(-c3ccc(Cl)cc3)cc2N1 [Example 186] : 1.36 µM

Per the record, COc1ccc(-n2nc(-c3cccc(-c4cccc(C(=O)O)c4)c3)nc2-c2ccccc2)cc1 [Example 55] has EC50 of 2.96 µM

The recorded EC50 for CC(C)n1nc(-c2cccc(-c3cccc(C(=O)O)c3)c2)nc1-c1ccccc1 [Example 64] is > 10 µM

The molecule Cc1cc2c(cc1C(F)(F)F)NC(=O)CC(c1cccc(CCCO)c1)N2 (racemic) [Example 154] showed EC50 equal to > 10 µM

Item: O=Cc1cc(-c2cccc(-c3csc(-c4ccccc4)n3)c2)ccc1F [Example 19] | EC50: > 10 µM

====

target: rat mGlu3 receptor (Rattus norvegicus (Rat)); assay: mGlu3 in vitro GIRK thallium flux assay; assay type: cell-based; conditions: NAM; 2.5 min compound incubation; EC80 glutamate; HEK-293 GIRK cells
Consider the following compounds and their measured EC50 readings.
Hi! Could you send only the number? It should be in µM, unit omitted.

The examples below pair each entry with its known result.
{"compound": "Cc1cc2c(cc1C(F)(F)F)NC(=O)CC(c1cccc(C#CCO)c1)=N2 [Example 203]", "tested_on": "rat mGlu3 receptor (Rattus norvegicus (Rat))", "EC50 [µM]": 0.39}
{"compound": "O=C(O)c1cc(F)cc(-c2cccc(-c3nc(-c4ccco4)cc(C(F)(F)F)n3)c2)c1 [Example 89]", "tested_on": "rat mGlu3 receptor (Rattus norvegicus (Rat))", "EC50 [µM]": 2.25}
{"compound": "O=C(O)c1cc(-c2cccc(-c3nc(-c4nccs4)cc(C(F)(F)F)n3)c2)ccc1F [Example 109]", "tested_on": "rat mGlu3 receptor (Rattus norvegicus (Rat))", "EC50 [µM]": 2.13}

Sample O=C(O)c1cccc(-c2cccc(-c3nc(-c4cccs4)n(-c4ccccc4)n3)c2)c1 [Example 53] ; EC50 observed: 4.29

====

molecular target: rat mGlu3 receptor (Rattus norvegicus (Rat)); assay: mGlu3 in vitro GIRK thallium flux assay; assay type: cell-based; details: NAM; 2.5 min compound incubation; EC80 glutamate; HEK-293 GIRK cells
Reported EC50 values for a set of molecules
Field: numeric (µM). Do not append units.

{"molecule": "Cc1cc2c(cc1C(F)(F)F)NC(=O)CC(c1cccc(Sc3ncccn3)c1)N2 (single isomer, unassigned) [Example 166B]", "EC50, µM": 4.53}

Let's switch to this molecule now.
// sample "COc1ccc(-c2nc(-c3cccc(-c4cccc(C(=O)O)c4)c3)cs2)cc1OC" , its EC50 was 4.02

====

biological target: UniProt P31421; assay: mGlu2 in vitro GIRK thallium flux assay; assay type: cell-based; conditions: mGlu2 EC50 (μM) (60 min), NAM; 60 min compound incubation; EC80 glutamate; HEK-293 GIRK cells
measured_endpoint: EC50 (µM)

{"compound": "O=C(O)c1cccc(-c2cccc(-c3nc(-c4cccs4)n(-c4ccccc4)n3)c2)c1 [Example 53]", "tested_on": "UniProt P31421", "endpoint_unit": "µM", "EC50": 3.67}

I: COc1ccc(-n2nc(-c3cccc(-c4cccc(C(=O)O)c4)c3)nc2-c2ccccc2)cc1 [Example 55]
II: O=C(O)c1cccc(-c2cccc(-c3csc(-c4ccc(Cl)nc4)n3)c2)c1 [Example 35]
INPUT: Hi there! Just curious which has the higher EC50 between I and II . Selection: enter the item's label.
OUTPUT: I
(I: 6.58 µM, II: 0.27 µM)

====

molecular target: rat mGlu2 receptor (Rattus norvegicus (Rat), UniProt P31421); assay: mGlu2 in vitro GIRK thallium flux assay; type: cell-based; conditions: NAM; 2.5 min compound incubation; EC80 glutamate; HEK-293 GIRK cells; read-out: mGlu2 EC50 (μM) (2.5 min)
Sequence (P31421 19-872): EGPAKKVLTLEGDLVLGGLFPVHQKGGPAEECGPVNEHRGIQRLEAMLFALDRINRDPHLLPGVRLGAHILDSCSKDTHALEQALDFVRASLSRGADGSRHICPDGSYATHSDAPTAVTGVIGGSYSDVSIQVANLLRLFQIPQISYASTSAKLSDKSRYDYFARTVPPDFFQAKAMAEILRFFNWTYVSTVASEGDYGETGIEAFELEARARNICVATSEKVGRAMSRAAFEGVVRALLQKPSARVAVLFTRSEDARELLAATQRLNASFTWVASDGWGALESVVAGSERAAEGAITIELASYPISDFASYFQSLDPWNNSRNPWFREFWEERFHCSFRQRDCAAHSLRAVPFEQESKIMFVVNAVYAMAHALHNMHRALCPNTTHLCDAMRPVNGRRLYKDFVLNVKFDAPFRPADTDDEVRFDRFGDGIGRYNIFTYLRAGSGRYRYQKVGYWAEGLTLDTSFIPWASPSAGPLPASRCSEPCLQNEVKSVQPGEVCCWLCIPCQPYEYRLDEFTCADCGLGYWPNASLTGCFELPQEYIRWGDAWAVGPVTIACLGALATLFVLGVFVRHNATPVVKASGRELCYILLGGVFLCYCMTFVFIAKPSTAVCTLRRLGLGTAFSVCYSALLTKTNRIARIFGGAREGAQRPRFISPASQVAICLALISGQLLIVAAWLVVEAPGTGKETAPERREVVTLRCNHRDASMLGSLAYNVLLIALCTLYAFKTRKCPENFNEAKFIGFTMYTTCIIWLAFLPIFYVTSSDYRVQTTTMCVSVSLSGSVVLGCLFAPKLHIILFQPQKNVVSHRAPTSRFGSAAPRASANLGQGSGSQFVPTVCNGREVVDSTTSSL
measured_endpoint: EC50 (µM)
API: value field is a number in µM; no unit string.

{"molecule": "O=C1CC(c2ccnc(Br)c2)=Nc2ccc(C(F)(F)F)cc2N1 [Example 191]", "EC50 / µM": 0.25}
{"molecule": "O=C(O)c1cc(-c2cccc(-c3nc(-c4ccc[nH]4)cc(C(F)(F)F)n3)c2)ccc1F [Example 106]", "EC50 / µM": 1.19}
{"molecule": "O=C(O)c1cccc(-c2cccc(-c3csc(/C=C/c4ccccc4)n3)c2)c1 [Example 36]", "EC50 / µM": 3.47}
{"molecule": "O=C(O)c1cc(-c2cccc(-c3nc(-c4ccc(C(F)(F)F)cc4)cc(C(F)(F)F)n3)c2)ccc1F [Example 108]", "EC50 / µM": 1.5}

Below: the item to evaluate.
The molecule FC(F)(F)c1ccc(-c2cc(C(F)(F)F)nc(-c3cccc(-c4cccc(-c5nn[nH]n5)c4)c3)n2)cn1 [Example 123] showed EC50 equal to 0.75

====

target: rat mGlu2 receptor (Rattus norvegicus (Rat), UniProt P31421); assay: mGlu2 in vitro GIRK thallium flux assay; assay type: cell-based; conditions: mGlu2 EC50 (μM) (60 min), NAM; 60 min compound incubation; EC80 glutamate; HEK-293 GIRK cells
measured_endpoint: EC50 (µM)

I: O=C(O)c1cccc(-c2cccc(-c3nc(-c4ccccc4)n(Cc4ccccc4)n3)c2)c1
II: C#Cc1cccc(C2CC(=O)Nc3cc(C(F)(F)F)c(C)cc3N2)c1 (single isomer, unassigned) [Example 175B]
III: O=C(O)c1cc(-c2cccc(-c3csc(-c4ccccc4)n3)c2)ccc1Cl
INPUT: Sort these molecules on EC50 so the largest reading comes first. List each label, following the requested order.
OUTPUT: II, I, III
(II: 4.47 µM, I: 2.71 µM, III: 0.8 µM)

====

Reported EC50 values for the following compounds.
target: rat mGlu2 receptor (Rattus norvegicus (Rat)); test: mGlu2 in vitro GIRK thallium flux assay; assay type: cell-based; conditions: NAM; 2.5 min compound incubation; EC80 glutamate; HEK-293 GIRK cells; read-out: mGlu2 EC50 (μM) (2.5 min)

// known answers, use as guide
{"compound": "O=C(O)c1ccoc1-c1cccc(-c2nc(-c3ccccc3)n(-c3ccccc3)n2)c1", "EC50": "> 10 µM"}
{"compound": "O=C(O)c1cccc(-c2cccc(-c3coc(-c4ccccc4)n3)c2)c1", "EC50": "> 10 µM"}
{"compound": "COc1ccc(C(=O)O)cc1-c1cccc(-c2csc(-c3ccccc3)n2)c1", "EC50": "1.81 µM"}

Record "O=C(O)c1cccc(-c2cccc(-c3csc(-c4cccc5ccccc45)n3)c2)c1" . Reported EC50: > 10 µM

The compound "COc1ccc(-n2nc(-c3cccc(-c4cccc(C(=O)O)c4)c3)nc2-c2ccccc2)cc1" showed EC50 equal to > 10 µM

What the record says about "O=C1CC(c2ccnc(Cl)c2)=Nc2ccc(-c3ccccc3F)cc2N1" : EC50 is 0.98 µM

Notebook: Cc1cc(-c2cccc(C3CC(=O)Nc4cc(C(F)(F)F)c(C)cc4N3)c2)cc(C)n1 (racemic) , EC50 read as > 10 µM

Record "O=C(O)c1cc(F)cc(-c2ccc(-c3nc(-c4ccc(C(F)(F)F)nc4)cc(C(F)(F)F)n3)cc2)c1" . Reported EC50: 2.79 µM

====

In this section we review reported EC50 values for a set of compounds.
molecular target: rat mGlu3 receptor (Rattus norvegicus (Rat), UniProt P31422); assay: mGlu3 in vitro GIRK thallium flux assay; format: cell-based; conditions: NAM; 2.5 min compound incubation; EC80 glutamate; HEK-293 GIRK cells
Sequence (P31422 23-879): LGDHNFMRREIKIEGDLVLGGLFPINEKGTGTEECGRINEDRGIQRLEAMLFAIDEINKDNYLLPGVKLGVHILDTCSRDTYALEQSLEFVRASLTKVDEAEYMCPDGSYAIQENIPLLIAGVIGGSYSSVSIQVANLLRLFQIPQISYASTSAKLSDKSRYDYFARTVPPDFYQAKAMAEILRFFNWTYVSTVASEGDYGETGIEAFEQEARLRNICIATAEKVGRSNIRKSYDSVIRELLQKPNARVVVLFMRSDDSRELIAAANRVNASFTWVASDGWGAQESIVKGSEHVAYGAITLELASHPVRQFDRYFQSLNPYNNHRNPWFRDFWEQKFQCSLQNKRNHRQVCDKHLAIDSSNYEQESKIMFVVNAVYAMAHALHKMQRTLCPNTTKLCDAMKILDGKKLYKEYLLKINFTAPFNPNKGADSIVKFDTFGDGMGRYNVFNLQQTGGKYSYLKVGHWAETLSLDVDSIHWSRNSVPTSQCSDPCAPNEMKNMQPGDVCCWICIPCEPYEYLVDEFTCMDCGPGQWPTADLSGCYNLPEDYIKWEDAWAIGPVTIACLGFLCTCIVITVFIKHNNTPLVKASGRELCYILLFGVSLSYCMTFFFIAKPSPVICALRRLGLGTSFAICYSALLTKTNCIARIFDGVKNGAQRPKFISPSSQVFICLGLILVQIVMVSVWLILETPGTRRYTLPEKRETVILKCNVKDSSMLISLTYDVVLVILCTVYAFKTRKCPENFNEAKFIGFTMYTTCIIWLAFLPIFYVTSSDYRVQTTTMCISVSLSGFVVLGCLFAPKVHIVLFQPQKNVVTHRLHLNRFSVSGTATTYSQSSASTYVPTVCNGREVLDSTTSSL
Numeric answer only, unit µM assumed.

Recorded EC50, per entry:
{"compound": "O=C(O)c1cc(-c2cccc(-c3nc(-c4ccco4)cc(C(F)(F)F)n3)c2)ccc1F [Example 88]", "EC50 [µM]": 1.13}
{"compound": "O=C(O)c1ccc(-c2cccc(-c3nc(-c4ccc(C(F)(F)F)nc4)cc(C(F)(F)F)n3)c2)c(Cl)c1 [Example 78]", "EC50 [µM]": 6.32}
{"compound": "O=C(O)c1cc(-c2cccc(-c3nc(-c4ccc(C(F)(F)F)cc4)cc(C(F)(F)F)n3)c2)ccc1F [Example 108]", "EC50 [µM]": 1.49}
{"compound": "O=C(O)c1ccc(-c2ccc(-c3nc(-c4ccc(C(F)(F)F)nc4)cc(C(F)(F)F)n3)cc2)cc1 [Example 81]", "EC50 [µM]": 2.13}

Value of EC50 reported for the compound Cc1cc2c(cc1C(F)(F)F)NC(=O)CC(c1cccc(Oc3ccccc3)c1)=N2 [Example 143] is 2.62
